# Tested on: CAKI-1
# Method Description: NCI 60 cell line panel (SRB), CAKI-1
# Format: cell-based
# Condition Context: Homo sapiens; CAKI-1, Renal Cancer; single dose of 10 μM; read-out: Cell Growth Percent
Give measured activity at 10 µM for each item. Keep answers brief.
Give bare numbers, in %.

Some solved cases for reference:
INSERT INTO assay_data (compound, measured_on, measured_attribute, unit_symbol, observed_measurement) VALUES
  ('O=C(Nc1ccc(Nc2ncnc3sc4c(c23)CCCC4)cc1)Nc1cccc(Cl)c1 [Compound 20d]', 'CAKI-1', 'activity at 10 µM', '%', 97.2),
  ('CCOC(=O)c1c(C)oc2ncnc(Nc3ccc(NC(=O)Nc4ccc(CC)cc4)cc3)c12 [Compound 15i]', 'CAKI-1', 'activity at 10 µM', '%', 98.3),
  ('O=C(Nc1ccccc1)Nc1ccc(Oc2ncnc3sc4c(c23)CCCC4)cc1 [Compound 21a]', 'CAKI-1', 'activity at 10 µM', '%', 83.4),
  ('CCOC(=O)c1c(C)oc2ncnc(Nc3ccc(NC(=O)Nc4cccc(Cl)c4)cc3)c12 [Compound 15d]', 'CAKI-1', 'activity at 10 µM', '%', 90.8);

Could you tell me activity at 10 µM for each of these compounds? They are listed below.
1. COc1cccc(NC(=O)Nc2ccc(Nc3ncnc4sc5c(c34)CCCC5)cc2)c1 [Compound 20c]
2. COc1cccc(NC(=O)Nc2ccc(Oc3ncnc4sc5c(c34)CCCC5)cc2)c1 [Compound 21c]
3. CCOC(=O)c1c(C)oc2ncnc(Nc3ccc(C(=O)NCCc4ccccc4)cc3)c12 [Compound 14e]

1: 97; 2: 80.8; 3: 92.5

# assay system CAKI-1: give activity at 10 µM of CCOC(=O)c1c(C)oc2ncnc(Nc3ccc(C(=O)Nc4ccc(OC)cc4)cc3)c12 [Compound 14b]
96.6

====

Can you tell me melting point for the items I'm about to list?

Some solved cases for reference:
INSERT INTO assay_data (molecule, observed_measurement) VALUES
  ('CCOC(=O)c1c(C)oc2ncnc(Nc3ccc(NC(=O)Nc4cccc(OC)c4)cc3)c12 [Compound 15c]', '220 to 222 °C'),
  ('CCOC(=O)c1c(C)oc2ncnc(Oc3ccc(NC(=O)Nc4cccc(C)c4)cc3)c12 [Compound 16b]', '116 to 119 °C'),
  ('CC(=O)c1cccc(NC(=O)Nc2ccc(Nc3ncnc4sc5c(c34)CCCC5)cc2)c1 [Compound 20g]', '265 to 269 °C');

I need melting point for every entry listed below, if you could help.
1. CCOC(=O)c1c(C)oc2ncnc(Oc3ccc(NC(=O)Nc4ccccc4)cc3)c12 [Compound 16a]
2. CCOC(=O)c1c(C)oc2ncnc(Nc3ccc(C(=O)Nc4ccc(C)cc4)cc3)c12 [Compound 14c]
3. CCOC(=O)c1c(C)oc2ncnc(Nc3ccc(NC(=O)c4ccc(Cl)cc4)cc3)c12 [Compound 13b]
4. CCOC(=O)c1c(C)oc2ncnc(Nc3ccc(NC(=O)Nc4cccc(C)c4)cc3)c12 [Compound 15b]
5. CCOC(=O)c1c(C)oc2ncnc(Oc3ccc(NC(=O)Nc4ccc(Cl)cc4)cc3)c12 [Compound 16d]
6. Cc1ccc(NC(=O)Nc2ccc(Nc3ncnc4sc5c(c34)CCCC5)cc2)cc1Cl [Compound 20f]
7. CCOC(=O)c1c(C)oc2ncnc(Nc3ccc(C(=O)Nc4ccc(Cl)c(C(F)(F)F)c4)cc3)c12 [Compound 14d]

1: 183 to 185 °C; 2: 235 to 238 °C; 3: > 250 °C; 4: > 250 °C; 5: 215 to 219 °C; 6: > 300 °C; 7: 238 to 240 °C

====

Task for the reader: assign each of the following compounds its reported activity at 10 µM.
# System: UACC-257
# Method Description: NCI 60 cell line panel (SRB), UACC-257
# Assay type: cell-based
# Condition Context: Homo sapiens; UACC-257, Melanoma; single dose of 10 μM; read-out: Cell Growth Percent
One number for each entry, in %.

Previously resolved entries follow.
INSERT INTO results (compound, measured_attribute, unit_symbol, observed_measurement) VALUES
  ('O=C(Nc1ccc(Nc2ncnc3sc4c(c23)CCCC4)cc1)Nc1cccc(Cl)c1 [Compound 20d]', 'activity at 10 µM', '%', 93.8),
  ('CCOC(=O)c1c(C)oc2ncnc(Nc3ccc(C(=O)Nc4ccc(OC)cc4)cc3)c12 [Compound 14b]', 'activity at 10 µM', '%', 94.7),
  ('COc1cccc(NC(=O)Nc2ccc(Nc3ncnc4sc5c(c34)CCCC5)cc2)c1 [Compound 20c]', 'activity at 10 µM', '%', 94.9);

Now look at this entry.
Name the recorded activity at 10 µM of the item CCOC(=O)c1c(C)oc2ncnc(Nc3ccc(NC(=O)Nc4ccc(CC)cc4)cc3)c12 [Compound 15i] in your answer.
111

====

Would you kindly list inhibition at 10 µM for each of these molecules?
# Measured On: RET (Homo sapiens)
# Sequence (P07949 29-1114, species assumed): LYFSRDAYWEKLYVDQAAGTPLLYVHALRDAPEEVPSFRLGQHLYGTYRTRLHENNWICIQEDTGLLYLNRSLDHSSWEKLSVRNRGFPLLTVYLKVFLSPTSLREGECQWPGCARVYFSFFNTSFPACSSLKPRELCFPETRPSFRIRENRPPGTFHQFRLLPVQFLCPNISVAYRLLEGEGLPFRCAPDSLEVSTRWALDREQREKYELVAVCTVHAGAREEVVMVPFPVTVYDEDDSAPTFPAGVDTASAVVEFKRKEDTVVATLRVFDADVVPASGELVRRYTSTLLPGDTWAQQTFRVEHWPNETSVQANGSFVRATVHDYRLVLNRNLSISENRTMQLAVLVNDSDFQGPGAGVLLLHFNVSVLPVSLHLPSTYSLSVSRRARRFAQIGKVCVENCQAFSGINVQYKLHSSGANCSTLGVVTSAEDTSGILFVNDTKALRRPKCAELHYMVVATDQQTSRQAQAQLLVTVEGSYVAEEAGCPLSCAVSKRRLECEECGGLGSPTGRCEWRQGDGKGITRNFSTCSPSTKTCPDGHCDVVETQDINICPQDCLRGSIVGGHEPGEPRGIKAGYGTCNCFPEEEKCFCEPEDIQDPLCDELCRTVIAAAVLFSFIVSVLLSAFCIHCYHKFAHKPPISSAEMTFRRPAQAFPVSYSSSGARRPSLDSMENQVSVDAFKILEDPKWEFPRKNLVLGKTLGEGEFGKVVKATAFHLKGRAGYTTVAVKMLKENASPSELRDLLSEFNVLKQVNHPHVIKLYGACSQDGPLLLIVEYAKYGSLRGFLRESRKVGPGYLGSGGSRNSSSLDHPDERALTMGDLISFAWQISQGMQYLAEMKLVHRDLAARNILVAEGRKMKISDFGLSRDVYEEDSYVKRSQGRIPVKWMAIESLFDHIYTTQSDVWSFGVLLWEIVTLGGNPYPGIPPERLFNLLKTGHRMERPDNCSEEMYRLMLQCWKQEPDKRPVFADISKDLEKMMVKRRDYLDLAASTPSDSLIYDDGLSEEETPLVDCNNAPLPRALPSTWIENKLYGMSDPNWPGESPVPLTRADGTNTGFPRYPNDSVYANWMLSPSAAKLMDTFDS
# Method Description: In vitro multiple-kinase inhibition assay, RET
# Type: biochemical
# include the unit after the value

Answered cases to consult:
INSERT INTO results (molecule, observed_measurement) VALUES
  ('CCOC(=O)c1c(C)oc2ncnc(Oc3ccc(NC(=O)Nc4ccc(C)c(Cl)c4)cc3)c12 [Compound 16e]', '84%'),
  ('COc1cccc(NC(=O)Nc2ccc(Oc3ncnc4sc5c(c34)CCCC5)cc2)c1 [Compound 21c]', '91%'),
  ('Cc1cccc(NC(=O)Nc2ccc(Oc3ncnc4sc5c(c34)CCCC5)cc2)c1 [Compound 21b]', '87%');

Alright, here's another molecule for you.
Give recorded inhibition at 10 µM. Cc1ccc(NC(=O)Nc2ccc(Oc3ncnc4sc5c(c34)CCCC5)cc2)cc1Cl [Compound 21e]
91%

====

# System: HL-60(TB)
# Method Description: NCI 60 cell line panel (SRB), HL-60(TB)
# Assay type: cell-based
# Condition Context: Homo sapiens, Leukemia, single dose of 10 μM, read-out: Cell Growth Percent
Task for the reader: assign each of the following molecules its reported activity at 10 µM.
Answers are plain numbers, in %.

Take a look at these entries with their results.
INSERT INTO results (molecule, observed_measurement) VALUES
  ('COc1cccc(NC(=O)Nc2ccc(Nc3ncnc4sc5c(c34)CCCC5)cc2)c1 [Compound 20c]', 91.1),
  ('COc1cccc(NC(=O)Nc2ccc(Oc3ncnc4sc5c(c34)CCCC5)cc2)c1 [Compound 21c]', 106),
  ('CCOC(=O)c1c(C)oc2ncnc(Nc3ccc(C(=O)Nc4cccc(Cl)c4)cc3)c12 [Compound 14a]', 105),
  ('O=C(Nc1ccc(Nc2ncnc3sc4c(c23)CCCC4)cc1)Nc1cccc(Cl)c1 [Compound 20d]', 98.9),
  ('O=C(Nc1ccccc1)Nc1ccc(Nc2ncnc3sc4c(c23)CCCC4)cc1 [Compound 20a]', 97);

Hello, I would appreciate it if you could give activity at 10 µM for each entry below.
1. CCOC(=O)c1c(C)oc2ncnc(Nc3ccc(C(=O)NCCc4ccccc4)cc3)c12 [Compound 14e]
2. CCOC(=O)c1c(C)oc2ncnc(Nc3ccc(NC(=O)Nc4cccc(Cl)c4)cc3)c12 [Compound 15d]
3. CCOC(=O)c1c(C)oc2ncnc(Nc3ccc(NC(=O)Nc4ccc(CC)cc4)cc3)c12 [Compound 15i]

1: 87.6; 2: 88.4; 3: 103

====

I'd appreciate it if you could supply activity at 10 µM values for the items below.
# System: DU-145
# Method Description: NCI 60 cell line panel (SRB), DU-145
# Type: cell-based
# Condition Context: Homo sapiens; DU-145, Prostate Cancer; single dose of 10 μM; read-out: Cell Growth Percent
One number for each entry, in %.

Some entries whose results are on file:
INSERT INTO results (molecule, observed_measurement) VALUES
  ('CCOC(=O)c1c(C)oc2ncnc(Nc3ccc(C(=O)Nc4cccc(Cl)c4)cc3)c12 [Compound 14a]', 75.9),
  ('CCOC(=O)c1c(C)oc2ncnc(Nc3ccc(C(=O)Nc4ccc(OC)cc4)cc3)c12 [Compound 14b]', 97.1),
  ('O=C(Nc1ccc(Nc2ncnc3sc4c(c23)CCCC4)cc1)Nc1cccc(Cl)c1 [Compound 20d]', 110);

Attention now turns to another entry.
Give DU-145 activity at 10 µM for the following molecule: CCOC(=O)c1c(C)oc2ncnc(Nc3ccc(NC(=O)Nc4cccc(Cl)c4)cc3)c12 [Compound 15d]
70.8

====

# Test system: DU-145
# Method Description: NCI 60 cell line panel (SRB), DU-145
# Assay type: cell-based
# Condition Context: Homo sapiens; DU-145, Prostate Cancer; single dose of 10 μM; read-out: Cell Growth Percent
Measured Attribute: activity at 10 µM
Please answer using a numeric value trailed by its unit.

Below are worked cases with known answers.
INSERT INTO results (compound, observed_measurement) VALUES
  ('CCOC(=O)c1c(C)oc2ncnc(Nc3ccc(NC(=O)Nc4ccc(CC)cc4)cc3)c12 [Compound 15i]', '103%'),
  ('O=C(Nc1ccc(Cl)cc1)Nc1ccc(Oc2ncnc3sc4c(c23)CCCC4)cc1 [Compound 21d]', '91.9%'),
  ('Cc1cccc(NC(=O)Nc2ccc(Oc3ncnc4sc5c(c34)CCCC5)cc2)c1 [Compound 21b]', '81.3%'),
  ('O=C(Nc1ccccc1)Nc1ccc(Nc2ncnc3sc4c(c23)CCCC4)cc1 [Compound 20a]', '109%'),
  ('CCOC(=O)c1c(C)oc2ncnc(Nc3ccc(C(=O)NCCc4ccccc4)cc3)c12 [Compound 14e]', '82.1%');

Could you tell me activity at 10 µM for each of these compounds? They are listed below.
1. O=C(Nc1ccccc1)Nc1ccc(Oc2ncnc3sc4c(c23)CCCC4)cc1 [Compound 21a]
2. COc1cccc(NC(=O)Nc2ccc(Oc3ncnc4sc5c(c34)CCCC5)cc2)c1 [Compound 21c]
3. COc1cccc(NC(=O)Nc2ccc(Nc3ncnc4sc5c(c34)CCCC5)cc2)c1 [Compound 20c]

1. 86.1%
2. 82.4%
3. 105%
